Data origin: ChEMBL document CHEMBL1121899

system_name: B2 bradykinin receptor (Homo sapiens) (UniProt P30411)
Sequence (P30411 whole entry): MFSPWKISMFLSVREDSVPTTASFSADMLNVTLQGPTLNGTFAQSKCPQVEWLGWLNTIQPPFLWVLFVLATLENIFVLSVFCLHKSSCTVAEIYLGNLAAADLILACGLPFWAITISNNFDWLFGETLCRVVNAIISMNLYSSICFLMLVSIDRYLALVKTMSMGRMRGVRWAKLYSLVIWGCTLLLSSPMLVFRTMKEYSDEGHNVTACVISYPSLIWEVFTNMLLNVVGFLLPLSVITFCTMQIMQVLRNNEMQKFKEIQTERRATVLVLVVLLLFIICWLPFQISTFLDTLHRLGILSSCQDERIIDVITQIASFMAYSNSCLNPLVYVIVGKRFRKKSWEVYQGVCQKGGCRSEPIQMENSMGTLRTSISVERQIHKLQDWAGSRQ
test_protocol: Percent agonistic activity in rabbit jugular vein expressing B2 receptor relative to bradykinin
Type: functional
conditions: Oryctolagus cuniculus
Where a SMILES comes first, the peptide text is derived from it.
outcome_measure: Relative affinity (%)
Report the value in % with no unit label.

Input: State its Relative affinity: NC(N)=NCCC[C@H](NC(=O)[C@H](CC1CCCCC1)NC(=O)[C@@H]1CCCN1C(=O)[C@H](CO)NC(=O)[C@H](Cc1ccccc1)NC(=O)CNC(=O)[C@@H]1CCCN1C(=O)[C@@H]1CCCN1C(=O)[C@@H](N)CCCN=C(N)N)C(=O)O (HELM PEPTIDE1{R.P.P.G.F.S.P.[Cha].R}$$$$V2.0)
Output: 23

---

system_name: B1 bradykinin receptor (Homo sapiens)
test_protocol: Intrinsic activity was determined
Type: functional
conditions: Oryctolagus cuniculus
Where a SMILES comes first, the peptide text is derived from it.
outcome_measure: Alpha E
Lab note: record the figure alone, no unit after it.

Input: State its Alpha E: NC(N)=NCCC[C@H](N)C(=O)N1CCC[C@H]1C(=O)N1CCC[C@H]1C(=O)NCC(=O)N[C@@H](Cc1ccccc1)C(=O)N[C@@H](CO)C(=O)N1CCC[C@H]1C(=O)N[C@@H](Cc1ccc(N)cc1)C(=O)O
Output: 1

Input: State its Alpha E: NC(N)=NCCC[C@H](NC(=O)[C@H](CC1CCCCC1)NC(=O)[C@@H]1CCCN1C(=O)[C@H](CO)NC(=O)[C@H](Cc1ccccc1)NC(=O)CNC(=O)[C@@H]1CCCN1C(=O)[C@@H]1CCCN1C(=O)[C@@H](N)CCCN=C(N)N)C(=O)O (HELM PEPTIDE1{R.P.P.G.F.S.P.[Cha].R}$$$$V2.0)
Output: 1

Input: State its Alpha E: [N-]=[N+]=Nc1ccc(C[C@H](NC(=O)[C@@H]2CCCN2C(=O)[C@H](CO)NC(=O)[C@H](Cc2ccccc2)NC(=O)CNC(=O)[C@@H]2CCCN2C(=O)[C@@H]2CCCN2C(=O)[C@@H](N)CCCN=C(N)N)C(=O)O)cc1
Output: 0

Input: State its Alpha E: N#[N+]c1ccc(C[C@H](NC(=O)CNC(=O)[C@@H]2CCCN2C(=O)[C@@H]2CCCN2C(=O)[C@@H](N)CCCN=C(N)N)C(=O)N[C@@H](CO)C(=O)N2CCC[C@H]2C(=O)N[C@@H](Cc2ccccc2)C(=O)N[C@@H](CCCN=C(N)N)C(=O)O)cc1 (HELM PEPTIDE1{R.P.P.G.[N#[N+]c1ccc(C[C@H](N[*:1])C(=O)[*:2])cc1].S.P.F.R}$$$$V2.0)
Output: 1

---

Consider the following molecules; for each one, report its Alpha E.
system_name: B1 bradykinin receptor (Homo sapiens) (UniProt P46663)
Sequence (P46663 whole entry): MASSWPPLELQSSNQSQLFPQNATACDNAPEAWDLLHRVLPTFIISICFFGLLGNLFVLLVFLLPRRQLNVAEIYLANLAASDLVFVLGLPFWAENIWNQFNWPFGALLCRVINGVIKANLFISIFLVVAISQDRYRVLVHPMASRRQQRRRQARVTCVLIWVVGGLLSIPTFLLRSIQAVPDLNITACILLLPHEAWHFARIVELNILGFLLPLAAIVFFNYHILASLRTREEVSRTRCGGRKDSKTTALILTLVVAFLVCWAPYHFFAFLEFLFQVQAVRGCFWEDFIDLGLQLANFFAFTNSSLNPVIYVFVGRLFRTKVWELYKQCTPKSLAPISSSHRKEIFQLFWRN
test_protocol: Intrinsic activity was determined
Format: functional
conditions: Oryctolagus cuniculus
Where a SMILES comes first, the peptide text is derived from it.
Lab note: record the figure alone, no unit after it.

Input: State its Alpha E: NC(N)=NCCC[C@H](NC(=O)[C@H](Cc1ccccc1)NC(=O)[C@@H]1CCCN1C(=O)[C@H](CO)NC(=O)[C@H](CC1CCCCC1)NC(=O)CNC(=O)[C@@H]1CCCN1C(=O)[C@@H]1CCCN1C(=O)[C@@H](N)CCCN=C(N)N)C(=O)O (HELM PEPTIDE1{R.P.P.G.[Cha].S.P.F.R}$$$$V2.0)
Output: 1

Input: State its Alpha E: [N-]=[N+]=Nc1ccc(C[C@H](NC(=O)CNC(=O)[C@@H]2CCCN2C(=O)[C@@H]2CCCN2C(=O)[C@@H](N)CCCNC(=N)N)C(=O)N[C@@H](CO)C(=O)N2CCC[C@H]2C(=O)N[C@@H](Cc2ccccc2)C(=O)N[C@@H](CCCNC(=N)N)C(=O)O)cc1 (HELM PEPTIDE1{R.P.P.G.[[N-]=[N+]=Nc1ccc(C[C@H](N[*:1])C(=O)[*:2])cc1].S.P.F.R}$$$$V2.0)
Output: 1
